Measured largest response in the series, negative = inhibition, listed per entry for reference.
# target_entity: 4'-phosphopantetheinyl transferase ffp (Bacillus subtilis) (UniProt Q9F4F7)
# protocol_notes: qHTS Assay for Inhibitors of Bacillus subtilis Sfp phosphopantetheinyl transferase (PPTase);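 further: the enzyme is Sfp with the accession as filed and its product quenches rhodamine fluorescence; 0% = enzyme reaction without inhibitor and -100% = no enzyme wells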
# test_conditions: Biochemical Sfp PPTase activity
In all, about 310,000 compounds went through this assay and about 11,000 (3.5%) were called active. Roughly 4% stayed inconclusive and do not appear here. The sample as a whole holds a higher share of actives than the screen did.
test_readout: largest response in the series, negative = inhibition

compound_smiles=O=C(NCCc1ccccc1)c1ccc2c(c1)N(Cc1ccccc1)CCS2 target_entity="4'-phosphopantetheinyl transferase ffp (Bacillus subtilis) (UniProt Q9F4F7)" obs_value="5.03% (inactive)"
compound_smiles=CCCCc1nnc(NC(=O)CSc2nc(C)cc(=O)[nH]2)s1 target_entity="4'-phosphopantetheinyl transferase ffp (Bacillus subtilis) (UniProt Q9F4F7)" obs_value="9.76% (inactive)"
compound_smiles=O=S(=O)(c1ccc(Cl)cc1)c1nc(-c2ccco2)oc1N1CCCCC1 target_entity="4'-phosphopantetheinyl transferase ffp (Bacillus subtilis) (UniProt Q9F4F7)" obs_value="-3.63% (inactive)"
compound_smiles=CCOC(=O)c1sc2nc(CSc3ccccc3)[nH]c(=O)c2c1C target_entity="4'-phosphopantetheinyl transferase ffp (Bacillus subtilis) (UniProt Q9F4F7)" obs_value="1.58% (inactive)"
compound_smiles=CC(C)Cn1c(=O)c2ccccc2n2c(CCC(=O)NCc3ccccn3)nnc12 target_entity="4'-phosphopantetheinyl transferase ffp (Bacillus subtilis) (UniProt Q9F4F7)" obs_value="15.4% (inactive)"

###

# target_entity: 4'-phosphopantetheinyl transferase ffp (Bacillus subtilis) (UniProt Q9F4F7)
# protocol_notes: qHTS Assay for Inhibitors of Bacillus subtilis Sfp phosphopantetheinyl transferase (PPTase);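 further: the enzyme is Sfp with the accession as filed and its product quenches rhodamine fluorescence; 0% = enzyme reaction without inhibitor and -100% = no enzyme wells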
# test_conditions: Biochemical Sfp PPTase activity
In all, about 310,000 compounds went through this assay and about 11,000 (3.5%) were called active. Inconclusive results (about 4%) are left out. The sample holds actives, similar compounds and a random draw of the others, so the mix is not that of the screen.
test_readout: largest response in the series, negative = inhibition (%)

molecule="Cc1cc(=O)n2nc(N3CCCC(C(=O)NCc4cccc(Cl)c4)C3)sc2n1 (configuration not stated)" unit_abbrev=% obs_value=8.1
molecule=COc1ccc(C(=O)OCC(=O)Nc2cccc(C(C)=O)c2)cc1OC unit_abbrev=% obs_value=11.4
molecule="COc1ccc(N2CCC(N3CCN(C)C(CCO)C3)CC2)cc1 (configuration not stated)" unit_abbrev=% obs_value=-5.05
molecule="CN1C(=O)CN2CCc3ccccc3C2c2cc(Cl)ccc21 (configuration not stated)" unit_abbrev=% obs_value=11
molecule=COc1ccc(CNC(=O)C2CCN(S(=O)(=O)c3ccc(SC)cc3)CC2)cc1 unit_abbrev=% obs_value=8.97
molecule=COc1ccccc1N1CCN(C(=O)c2cc(=O)c3cc(C)ccc3o2)CC1 unit_abbrev=% obs_value=-2.28
molecule=Cc1cc(=O)oc2c1ccc1ccccc12 unit_abbrev=% obs_value=3.98

###

# target_entity: 4'-phosphopantetheinyl transferase ffp (Bacillus subtilis) (UniProt Q9F4F7)
# protocol_notes: qHTS Assay for Inhibitors of Bacillus subtilis Sfp phosphopantetheinyl transferase (PPTase);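 further: the enzyme is Sfp with the accession as filed and its product quenches rhodamine fluorescence; 0% = enzyme reaction without inhibitor and -100% = no enzyme wells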
# test_conditions: Biochemical Sfp PPTase activity
The campaign covered roughly 310,000 compounds. About 11,000 (3.5%) were called active. Not shown: some 4% with an inconclusive outcome. The full list was thinned out, with actives kept by preference.
Measured largest response in the series, negative = inhibition, listed per entry for reference.
test_readout: largest response in the series, negative = inhibition (%)

compound=COc1ccc(-c2n[nH]c3c2CN(C(=O)c2ccc(F)cc2)CC3)cc1 obs_value=5.79
compound=CCOC(=O)[C@H]1[C@H]2COc3cc(OC)ccc3[C@@H]2N2C(=O)N(c3ccc(Br)cc3)C(=O)[C@@]12C obs_value=5.98
compound="Cc1cc(O)c(C2(O)C(=O)Nc3ccccc32)cc1C (centres undefined)" obs_value=0.726
compound="C/C=C(/C)C(=O)Nc1cccc(C2=NOC3(C2)C[C@@H](C(N)=O)N(C(=O)C2(C)CC2)C3)c1 (some centres undefined)" obs_value=-3.68
